assay: protein stability index of a GFP-peptide fusion (yeast GPS) (PSI 1-4); higher = more stable; sorted into four equal gates, so the index is relative within each strain; conditions: doa10∆
Could you label it Satisfied if measured protein stability index is 3 or higher, and Not satisfied otherwise?

primary_sequence: QNFAEFMTKLLEVANDL [IRR1]
label_value: Not satisfied
//
primary_sequence: KIMNVTTDSLTKVLQAD [YMR129W/POM152]
label_value: Satisfied
//
primary_sequence: ILSLATEGCIGLSQTEA [MCD1]
label_value: Not satisfied
//
primary_sequence: DARGVIGVIAGGGRVDK [RPL2A]
label_value: Satisfied
//
primary_sequence: TGAASNQSSFNFGNNGA [YOR098C/NUP1]
label_value: Not satisfied
//
primary_sequence: FKYVEDRFPLKLREPVA [ITC1]
label_value: Not satisfied
//
primary_sequence: DVTHTLGMLDDNKMDSV [SMC4]
label_value: Satisfied
//
primary_sequence: LLHNHLKSIESLKLENS [SMC2]
label_value: Not satisfied
//
primary_sequence: VHEWEVSKPSLLHETND [PRP8]
label_value: Satisfied
//
primary_sequence: DKKKGQNVTSETHSKKR [ITC1]
label_value: Satisfied
//
primary_sequence: EIFHLLQPLEEGLIIDT [SIN4]
label_value: Not satisfied
//
primary_sequence: TINKAVQVKVLGKYEFS [ESC2]
label_value: Not satisfied
//
primary_sequence: KESWDPNTTKTKLRAFV [YGR119C/NUP57]
label_value: Satisfied
//
primary_sequence: RAFQKQPHIFNNPKVKT [RPS11A]
label_value: Not satisfied
//
primary_sequence: AKNFSAQKRVVSYMMPS [SRB8]
label_value: Not satisfied
//
primary_sequence: VVGQNQLIDQFEWDISN [SNF5]
label_value: Not satisfied
//
primary_sequence: SKLKEEEAALLIKERQE [ESC2]
label_value: Not satisfied
//
primary_sequence: FERFPSPSTSANVPSTA [RPN4]
label_value: Not satisfied
//
primary_sequence: ISKHSKQAIYTRAAASE [RPS25B]
label_value: Not satisfied
//
primary_sequence: NSIDSTSRIELELKNIG [ECM29]
label_value: Satisfied
//
primary_sequence: DNISSFHSAVENLVQGN [YCG1]
label_value: Satisfied
//
primary_sequence: PVGRELDPISLILIPGE [RPN13]
label_value: Not satisfied
//
primary_sequence: QIEKKEIKKMIITNINA [YCG1]
label_value: Not satisfied
//
primary_sequence: HTLALEFVNGGKVVKNV [RRP46]
label_value: Not satisfied
//
primary_sequence: ISIPKTCDEIQNFENDF [REC8]
label_value: Not satisfied
//
primary_sequence: PIIATYGNRAEQFLETD [SRP68]
label_value: Not satisfied
//
primary_sequence: SLFHIVVDTEETATLIM [SMC3]
label_value: Not satisfied
//
primary_sequence: NGEEDEVALFSQKAKLM [YLR335W/NUP2]
label_value: Not satisfied
//
primary_sequence: KNQLRDWIRFVSIRQNQ [RPL22B]
label_value: Not satisfied
//
primary_sequence: LSDVAFYVQDVYKDNLS [RPO31]
label_value: Not satisfied
//
primary_sequence: VVAKLEDKRKVRSAEYY [RPL16B]
label_value: Satisfied
//
primary_sequence: ERLMSRPFGVALLIAGH [PUP2]
label_value: Not satisfied
//
primary_sequence: IWKESLIELSGGQRSLI [SMC2]
label_value: Not satisfied
//
primary_sequence: KKDRATGDADEPELRVL [RPO21]
label_value: Satisfied
//
primary_sequence: GSAELRNSYPASFYSVN [RPN3]
label_value: Satisfied
//
primary_sequence: TEDILKEISTRVFNAKD [YCS4]
label_value: Satisfied
//
primary_sequence: VLKTLEYKLATYGVPGS [NUT1]
label_value: Not satisfied
//
primary_sequence: VLTNIEVYRTSLNTKKN [SMC3]
label_value: Not satisfied
//
primary_sequence: ASLADVMSIESLVEVVF [FAS1]
label_value: Not satisfied
//
primary_sequence: RDQGNDSLNDDLNKENK [YIL149C/MLP2]
label_value: Satisfied
//
primary_sequence: KIAVLNNDKREIQEELE [SMC1]
label_value: Satisfied
//
primary_sequence: KGGEQISQLYSDAVMAE [YJL041W/NSP1]
label_value: Not satisfied
//
primary_sequence: ENELFNDRKQTTVSNDL [SSN2]
label_value: Not satisfied
//
primary_sequence: QFNAITGLNGSGKSNIL [SMC2]
label_value: Satisfied
//
primary_sequence: SKQNGSKFHFSWNESED [PRP28]
label_value: Not satisfied
//
primary_sequence: NHNKTKLLKSLKNTKYF [PRP8]
label_value: Not satisfied
//
primary_sequence: DITGDIRNEGSDAEEEE [ISW2]
label_value: Not satisfied
//
primary_sequence: IAAYIRRHRNPDLQFIV [SMC1]
label_value: Not satisfied
//
primary_sequence: SQRAQVVTMSVKSVNDP [RPC37]
label_value: Not satisfied
//
primary_sequence: LLSKKHGQLKLSIQYMI [RPN5]
label_value: Not satisfied
//
primary_sequence: FKGALTIKILPENTAMF [YMR129W/POM152]
label_value: Not satisfied
//
primary_sequence: TETLTSKKIVPSPKKVA [SIR4]
label_value: Not satisfied
